Below, each entry is listed with its recorded abundance fitness.
B1: Homeobox protein cut-like 1, residues 548 to 629; numbered along this chain, P39880 (parent)
chain: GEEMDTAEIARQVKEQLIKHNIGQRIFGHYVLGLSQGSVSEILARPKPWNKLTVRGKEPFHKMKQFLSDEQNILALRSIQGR

# Variants of: B1
# assayProtocol: abundance fitness (aPCA) (normalised: wild type 0, dead -1); higher = more abundant; growth selection in yeast, the domain comes from the species named
# measurementContext: Homo sapiens
Give only the figure.

In the examples that follow, each entry is paired with its recorded abundance fitness.
# sequenceString, observedMeasurement
records = [
    ("GEEMDTAEIARQVKEQLIKHWIGQRIFGHYVLGLSQGSVSEILARPKPWNKLTVRGKEPFHKMKQFLSDEQNILALRSIQGR", -0.759),
    ("GEEMDTAEIARQVKEQLIKHNIGQRIFGHYVLGLSQGSVSEILARPKPWNKLTVRGKEPFHKMKQFLSDEQNILALRSTQGR", -0.157),
    ("GEEMDTAEIARQVKEQLIKHNIGQRPFGHYVLGLSQGSVSEILARPKPWNKLTVRGKEPFHKMKQFLSDEQNILALRSIQGR", -0.517),
    ("GEEMDTAEIARQVKEQLIKHNIGQRIFGHYVLGLSQGSCSEILARPKPWNKLTVRGKEPFHKMKQFLSDEQNILALRSIQGR", -0.025),
    ("GEEMDTAEIARQVKEQLIKHNIGQRIFGHYVLGLSQGSVSEILARPKPWNKLTVRGKEPFIKMKQFLSDEQNILALRSIQGR", 0.075),
    ("GEEMDTAEIARQVKEQLIKHNIGQRIFGHYVLGLSQGSVSEILARPKPWNKLTVRGKEPFHNMKQFLSDEQNILALRSIQGR", -0.532),
    ("GEEMDTAEIARQVKEQLIKHNIGQRIFGHYVLGLSQGSVSEILARPKPWNKLTVRGKEGFHKMKQFLSDEQNILALRSIQGR", -0.024),
    ("GEEMDTAEIARQVKEQLIKHNIGQRIFGHYVLGLSQGSVSEILARPKPWNKLTVRGKEPFHKMKQFLSDEQNILALISIQGR", -0.116),
    ("GWEMDTAEIARQVKEQLIKHNIGQRIFGHYVLGLSQGSVSEILARPKPWNKLTVRGKEPFHKMKQFLSDEQNILALRSIQGR", -0.202),
    ("GEEMDTAEIARQVKEQLIKHNIGQRIFGHYVLGLSQGSVSEILARPKPWNKLTVRGKEPFHKMKQFLSDEQNILALCSIQGR", -0.032),
]

Shifting focus to the variant that follows.
Input line: May I ask what abundance fitness has been recorded for GEEMDTAEIARQVKEQLIKHNIGQRINGHYVLGLSQGSVSEILARPKPWNKLTVRGKEPFHKMKQFLSDEQNILALRSIQGR ?
Output line: -0.787
